Source listed as ChEMBL document CHEMBL5321209.

target: Protein ENL (Homo sapiens, UniProt Q03111); assay: Inhibition of C-terminal 6xHis-tagged ENL YEATS domain (1 to 148 residues) (unknown origin) expressed in Escherichia coli BL21(DE3) cells using biotin-H3K27ace as substrate incubated for 45 mins by alpha screen assay
measured.metric: IC50 (nM)
Provide only the numeric value, understood in nM.

[in] Reported IC50 for Protein ENL (Homo sapiens, UniProt Q03111), given `Cc1nnc2ccc(C(=O)Nc3ccc4[nH]c(CN5CCC[C@@H]5C)nc4c3)cn12` ?
[out] 267

[in] Entry to check: `C[C@H]1CCCN1Cc1nc2cc(NC(=O)c3ccc4c5ccccc5n(C)c4c3)ccc2[nH]1`
[out] 72.2

[in] Entry to check: `Cc1noc2ccc(C(=O)Nc3ccc4[nH]c(CN5CCC[C@@H]5C)nc4c3)cc12`
[out] 48.8

[in] Entry to check: `CCn1ncc2cc(C(=O)Nc3ccc4[nH]c(CN5CCC[C@@H]5C)nc4c3)ccc21`
[out] 18.9

[in] Entry to check: C[C@H]1CCCN1Cc1nc2cc(NC(=O)c3ccc4c(cnn4CCN4CC5OC(C)(C)OC5C4C4COC(C)(C)O4)c3)ccc2[nH]1 (stereo partly specified)
[out] 56.4

[in] Entry to check: `Cc1ccccc1C(=O)NCCn1ncc2cc(C(=O)Nc3ccc4[nH]c(CN5CCC[C@@H]5C)nc4c3)ccc21`
[out] 35.4

###

test system: MOLM-13; test: Antiproliferative activity against human MOLM-13 cells assessed as inhibition of cell growth measured after 72 hrs by Cell Titer-Glo luminescent assay; type: functional, cell-based; settings: MOLM-13, 72 h
For each record, write down the corresponding pIC50.
Note on units: pIC50 is unitless, being -log10 of a concentration expressed in mol/L.

[in] Reported pIC50 for MOLM-13, given `C[C@H]1CCCN1Cc1nc2cc(NC(=O)c3ccc4c(c3)c3ccccc3c(=O)n4C)ccc2[nH]1` ?
[out] 5.08

[in] Entry to check: `C[C@H]1CCCN1Cc1nc2cc(NC(=O)c3ccc4c(cnn4CCN4CCOCC4)c3)ccc2[nH]1`
[out] 4.40

[in] Entry to check: `Cc1noc2cc(C(=O)Nc3ccc4[nH]c(CN5CCC[C@@H]5C)nc4c3)ccc12`
[out] 4.42

[in] Entry to check: `C[C@H]1CCCN1Cc1nc2cc(NC(=O)c3ccc4c(cnn4C)c3)ccc2[nH]1`
[out] 4.13

###

biological target: Protein ENL (Homo sapiens) (UniProt Q03111); conditions: dose 6.3 µM
Description: Binding affinity to C-terminal 6xHis-tagged ENL YEATS domain (1 to 148 residues) (unknown origin) expressed in Escherichia coli BL21(DE3) cells assessed as thermal stability by measuring change in melting temperature at 6.3 uM by SYPRO dye-based thermal shift assay
measured.metric: ΔTm

[in] For `C[C@H]1CCCN1Cc1nc2cc(NC(=O)c3ccc4c(cnn4C)c3)ccc2[nH]1` , what is its reported ΔTm?
[out] 1.4 °C

[in] Entry to check: `C[C@H]1CCCN1Cc1nc2cc(NC(=O)c3ccc4c(c3)c3ccccc3c(=O)n4C)ccc2[nH]1`
[out] 1.9 °C

[in] Entry to check: `Cc1noc2cc(C(=O)Nc3ccc4[nH]c(CN5CCC[C@@H]5C)nc4c3)ccc12`
[out] 1.8 °C

[in] Entry to check: `C[C@H]1CCCN1Cc1nc2cc(NC(=O)c3ccc4c(cnn4CCN4CCOCC4)c3)ccc2[nH]1`
[out] 0.8 °C

###

Biological target: Protein ENL (Homo sapiens) (UniProt Q03111)
Sequence (whole entry): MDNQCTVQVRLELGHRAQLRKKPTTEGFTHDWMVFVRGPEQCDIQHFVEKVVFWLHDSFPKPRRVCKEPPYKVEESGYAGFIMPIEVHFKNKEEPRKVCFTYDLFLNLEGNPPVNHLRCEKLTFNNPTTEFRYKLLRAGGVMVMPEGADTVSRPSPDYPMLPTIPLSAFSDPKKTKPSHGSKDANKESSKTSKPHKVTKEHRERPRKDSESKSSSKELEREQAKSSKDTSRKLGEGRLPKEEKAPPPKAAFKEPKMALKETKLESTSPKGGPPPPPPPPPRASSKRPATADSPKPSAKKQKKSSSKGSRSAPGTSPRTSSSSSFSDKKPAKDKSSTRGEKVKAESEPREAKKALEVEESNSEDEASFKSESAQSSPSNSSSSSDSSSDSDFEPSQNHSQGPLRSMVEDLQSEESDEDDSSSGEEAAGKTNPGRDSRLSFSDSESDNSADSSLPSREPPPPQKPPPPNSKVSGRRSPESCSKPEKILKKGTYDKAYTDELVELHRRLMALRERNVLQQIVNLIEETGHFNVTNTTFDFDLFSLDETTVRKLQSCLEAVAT
Details: dose 111.0 nM, time 45.0 min
measured.metric: inhibition (%)
Provide only the numeric value, understood in %.

[in] For `Cc1noc2cc(C(=O)Nc3ccc4[nH]c(CN5CCC[C@@H]5C)nc4c3)ccc12` , what is its reported inhibition?
[out] 99.1

[in] Entry to check: `C[C@H]1CCCN1Cc1nc2cc(NC(=O)c3ccc4nn(CCNC(=O)OC(C)(C)C)cc4c3)ccc2[nH]1`
[out] 56

[in] Entry to check: `Cc1ccccc1C(=O)NCCn1ncc2cc(C(=O)Nc3ccc4[nH]c(CN5CCC[C@@H]5C)nc4c3)ccc21`
[out] 68.4

[in] Entry to check: `C[C@H]1CCCN1Cc1nc2cc(NC(=O)c3ccc4nn(C5CCCC5)cc4c3)ccc2[nH]1`
[out] 51

###

experiment: Cmax in BALB/c mouse at 30 mg/kg, po measured after 0.5 to 24 hrs by LC-MS/MS assay; type: ADME, organism-based; parameters: dose 30 mg/kg, time 0.5-24 hrs, route po; conditions: in vivo
measured.metric: Cmax
// unit must come after the numeric part

[in] For `C[C@H]1CCCN1Cc1nc2cc(NC(=O)c3ccc4c(c3)c3ccccc3c(=O)n4C)ccc2[nH]1` , what is its reported Cmax?
[out] 71.8 ng/mL

[in] Entry to check: `C[C@H]1CCCN1Cc1nc2cc(NC(=O)c3ccc4c(cnn4C)c3)ccc2[nH]1`
[out] 33.6 ng/mL

###

Target: UniProtKB Q03111
Sequence (whole entry): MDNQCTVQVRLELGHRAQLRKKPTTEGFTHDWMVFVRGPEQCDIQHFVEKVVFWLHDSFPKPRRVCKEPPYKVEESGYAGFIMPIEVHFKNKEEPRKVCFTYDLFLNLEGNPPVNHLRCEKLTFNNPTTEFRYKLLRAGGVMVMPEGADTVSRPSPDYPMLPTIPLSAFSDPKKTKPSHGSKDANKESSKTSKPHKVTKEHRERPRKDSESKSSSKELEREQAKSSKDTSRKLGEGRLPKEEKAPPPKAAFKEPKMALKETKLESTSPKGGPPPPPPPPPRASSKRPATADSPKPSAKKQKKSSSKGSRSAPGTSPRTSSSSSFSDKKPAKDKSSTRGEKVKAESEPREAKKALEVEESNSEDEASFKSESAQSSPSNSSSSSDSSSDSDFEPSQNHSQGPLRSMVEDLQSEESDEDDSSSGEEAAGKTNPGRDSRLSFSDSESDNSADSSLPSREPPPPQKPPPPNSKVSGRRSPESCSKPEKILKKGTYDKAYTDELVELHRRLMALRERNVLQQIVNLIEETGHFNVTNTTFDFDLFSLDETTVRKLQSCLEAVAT
Details: dose 111.0 nM, time 45.0 min
Entry flag: satisfied if inhibition reaches 90%; not satisfied if it does not.

[in] API: above_or_equal(metric=inhibition, cutoff=90%) for item `CCn1ncc2cc(C(=O)Nc3ccc4[nH]c(CN5CCC[C@@H]5C)nc4c3)ccc21`
[out] satisfied

[in] Entry to check: `CCCCn1cc2cc(C(=O)Nc3ccc4[nH]c(CN5CCC[C@@H]5C)nc4c3)ccc2n1`
[out] satisfied

[in] Entry to check: `Cc1noc2ccc(C(=O)Nc3ccc4[nH]c(CN5CCC[C@@H]5C)nc4c3)cc12`
[out] not satisfied

[in] Entry to check: `CCn1cc2cc(C(=O)Nc3ccc4[nH]c(CN5CCC[C@@H]5C)nc4c3)ccc2n1`
[out] not satisfied

[in] Entry to check: C[C@H]1CCCN1Cc1nc2cc(NC(=O)N3C(CO)C(O)C(O)C3CO)ccc2[nH]1 (some centres undefined)
[out] not satisfied

[in] Entry to check: `Cc1nnc2ccc(C(=O)Nc3ccc4[nH]c(CN5CCC[C@@H]5C)nc4c3)cn12`
[out] not satisfied

[in] Entry to check: `C[C@H]1CCCN1Cc1nc2cc(NC(=O)c3ccc4c(cnn4CCN4CCOCC4)c3)ccc2[nH]1`
[out] satisfied

###

For each record, write down the corresponding AUC(0-inf).
test: AUC (0 to infinity) in BALB/c mouse at 30 mg/kg, po measured after 0.5 to 24 hrs by LC-MS/MS assay; format: ADME, organism-based; parameters: time lower 0.5 hrs, dose 30 mg/kg, time upper 24 hrs, route po; settings: in vivo
Provide only the numeric value, understood in ng·h/mL.

[in] For `C[C@H]1CCCN1Cc1nc2cc(NC(=O)c3ccc4c(c3)c3ccccc3c(=O)n4C)ccc2[nH]1` , what is its reported AUC(0-inf)?
[out] 272

[in] Entry to check: `C[C@H]1CCCN1Cc1nc2cc(NC(=O)c3ccc4c(cnn4C)c3)ccc2[nH]1`
[out] 61
